Readings of pIC50 for the listed compounds
- Tested System: HLA B*1503 (Homo sapiens, UniProt P01889, A329T/A93T/A95T/C349S/D201E/D98Y/E187L/E204Q/K202T/N87E/Q94N/R155S/R180L/S121R/S35A/V306I/V36M/Y140S/Y91S)
- Test Details: biochemical
pIC50: −log10 of the molar value. Where a SMILES comes first, the peptide text is derived from it.
Measurement Kind: pIC50

CC[C@H](C)[C@H](N)C(=O)N[C@@H](CCSC)C(=O)N[C@H](C(=O)N[C@@H](CO)C(=O)N[C@@H](CCC(=O)O)C(=O)N[C@@H](Cc1c[nH]cn1)C(=O)N[C@@H](Cc1ccccc1)C(=O)N[C@@H](CO)C(=O)N[C@@H](CC(C)C)C(=O)O)C(C)C [3102.1318] (H-IMVSEHFSL-OH) : 8.26
CC(C)C[C@H](NC(=O)[C@@H]1CCCN1C(=O)[C@H](CC(N)=O)NC(=O)[C@H](C)NC(=O)[C@@H](N)Cc1ccccc1)C(=O)N[C@@H](CO)C(=O)N[C@@H](CC(N)=O)C(=O)N1CCC[C@H]1C(=O)N[C@@H](Cc1ccccc1)C(=O)O [3102.1245] (H-FANPLSNPF-OH) : 8.72
CC[C@H](C)[C@H](NC(=O)[C@@H](N)Cc1ccccc1)C(=O)N[C@@H](CCCNC(=N)N)C(=O)N[C@@H](Cc1ccc(O)cc1)C(=O)N[C@@H](CCCNC(=N)N)C(=O)N[C@@H](CCSC)C(=O)N[C@@H](Cc1c[nH]cn1)C(=O)N1CCC[C@H]1C(=O)N[C@@H](CCSC)C(=O)O [3102.0768] (H-FIRYRMHPM-OH) : 7.66
